Assay: xn = mol fraction of the nth substance listed, in the solute-free solvent
Settings: 318.15 K; x2 = 0.2
Item-by-item account of solubility (g/100 g solution)

Past entries and their recorded results:
Molecule	solubility (g/100 g solution)
CCCCN1CCCCC1C(=O)Nc1c(C)cccc1C.Cl.O (stereo not drawn) + CCO + O	7.92
O=C(CC(=O)c1ccccc1)c1ccccc1 + CCO + O	0.129
CC1(C)SC2C(NC(=O)C(NC(=O)N3CCNC3=O)c3ccccc3)C(=O)N2C1C(=O)O (stereo not drawn) + CCO + CC(C)O	0.449
CCOC(=O)C1=CC2(CC)CCCN3CCc4c(n1c1ccccc41)C32 (stereo not drawn) + CCO + O	0.0513
O=C(CC(=O)c1ccccc1)c1ccccc1 + CC(C)O + O	0.528
CCCCN1CCCCC1C(=O)Nc1c(C)cccc1C.Cl.O (stereo not drawn) + CO + O	11.4
O=c1ccc2ccccc2o1 + CO + O	4.3

Now let's try a different one.
Incoming: Supply measured solubility (g/100 g solution) of O=C(CC(=O)c1ccccc1)c1ccccc1 + CO + O in your reply.
Outgoing: 0.0881
